These entries and their values trace back to ChEMBL document CHEMBL5352457.

- assay-comment: in vivo
- measurement-setup: Sprague-Dawley, rat, iv, 1 mg/kg
value-kind: Vd at 24 h (L/kg)

- C=CC(=O)N1CC[C@@H](N2N=C(Nc3ccc(Oc4ccccc4)cc3)c3c[nH]c4ncnc2c34)C1: 1.67

====

- assay-comment: in vivo
- measurement-setup: Sprague-Dawley, rat, po, 10 mg/kg
value-kind: Tmax at 24 h (h)

- C=CC(=O)N1CC[C@@H](N2N=C(Nc3ccc(Oc4ccccc4)cc3)c3c[nH]c4ncnc2c34)C1: 1

====

- assay-comment: in vivo
- measurement-setup: Sprague-Dawley, rat, iv, 1 mg/kg
value-kind: clearance at 24 h (mL/min/kg)

• C=CC(=O)N1CC[C@@H](N2N=C(Nc3ccc(Oc4ccccc4)cc3)c3c[nH]c4ncnc2c34)C1 = 36.8
